# target or system: Carbonic anhydrase 1 (Homo sapiens)
# Sequence (P00915 whole entry): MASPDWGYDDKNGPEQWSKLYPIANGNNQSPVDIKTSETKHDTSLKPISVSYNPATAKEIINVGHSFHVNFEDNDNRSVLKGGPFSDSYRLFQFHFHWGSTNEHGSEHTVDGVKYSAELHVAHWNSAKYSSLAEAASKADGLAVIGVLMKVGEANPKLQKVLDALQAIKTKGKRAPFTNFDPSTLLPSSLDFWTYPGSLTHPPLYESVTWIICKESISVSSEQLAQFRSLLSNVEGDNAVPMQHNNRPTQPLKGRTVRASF
reported endpoint: pKi
Please express pKi as -log10 of the molar concentration.

These recorded examples may help you get a feel for the data.
# lookup: N=C(N)Nc1ccc(C(=O)O)cc1 [4-GUANIDINO-BENZOIC ACID] on Carbonic anhydrase 1 (Homo sapiens), pKi = 6.20

# lookup: N=C(N)Nc1ccc(O)cc1 on Carbonic anhydrase 1 (Homo sapiens), pKi = 5.08

Turning now to a further record.
# lookup: N=C(N)NCCc1ccc(S(N)(=O)=O)cc1 on Carbonic anhydrase 1 (Homo sapiens), pKi = 6.62

* * *

For reference, Ki measured on Carbonic anhydrase 2 (Homo sapiens):
Numbers only here, please. The scale is nM.

# lookup: N=C(N)NCCc1ccc(S(N)(=O)=O)cc1 on Carbonic anhydrase 2 (Homo sapiens), Ki = 89

Turning now to a further record.
# lookup: N=C(N)Nc1ccc(C(=O)O)cc1 on Carbonic anhydrase 2 (Homo sapiens), Ki = 1150
